test: chemical genetic growth profiling, strain panel (AID 1159580)
conditionSet: S. cerevisiae deletion strains, growth OD, locus YGR252W, strain gcn5, active compounds read low
Hit rate of the full screen: of about 5,500 compounds, about 2,000 (36%) were called active. Roughly 18% stayed inconclusive and do not appear here. The other results are listed elsewhere or left out.

| molecule | normalized growth |
| --- | --- |
| C[C@H]1OC(n2cc(F)c(=O)[nH]c2=O)C(O)[C@@H]1O (stereo not given in full) | 1.01 |
| CC1=C(/C=C/C(C)=C/C=C/C(C)=C/C=C/C=C(C)/C=C/C=C(C)/C=C/C2=C(C)C(=O)C(O)CC2(C)C)C(C)(C)CC(O)C1=O (stereo not given) | 0.944 |
| COc1ccc2c(c1)O[C@@H]1COc3cc(OC)c(OC)cc3[C@@H]1C2=O | 0.755 |
| COC1=CC(=O)C[C@@H](C)[C@]12Oc1c(Cl)c(OC)cc(OC)c1C2=O | 0.992 |
| COc1ccc2c(c1)OCc1c-2oc2cc(OC)ccc12 | 0.967 |
| COc1cc2c(cc1OC)C(=O)OC2 | 1.06 |
| CCC(=O)O[C@H]1[C@H](O[C@@H]2[C@@H](C)[C@H](O[C@H]3C[C@@](C)(OC)[C@@H](O)[C@H](C)O3)[C@@H](C)C(=O)O[C@H](CC)[C@@](C)(O)[C@H](O)[C@@H](C)C(=O)[C@H](C)C[C@@]2(C)O)O[C@H](C)C[C@@H]1N(C)C | 0.695 |
| COc1cc(NC(C)CCCN)c2ncccc2c1 (stereo not given) | 0.961 |
| CCOC(=O)CCC(=O)O[C@H]1[C@H](O[C@@H]2[C@@H](C)[C@H](O[C@H]3C[C@@](C)(OC)[C@@H](O)[C@H](C)O3)[C@@H](C)C(=O)O[C@H](CC)[C@@](C)(O)[C@H](O)[C@@H](C)C(=O)[C@H](C)C[C@@]2(C)O)O[C@H](C)C[C@@H]1N(C)C | 1.07 |
| CC[C@H]1OC(=O)[C@H](C)[C@@H](O[C@H]2C[C@@](C)(OC)[C@@H](O)[C@H](C)O2)[C@H](C)[C@@H](O[C@@H]2O[C@H](C)C[C@H](N(C)C)[C@H]2O)[C@](C)(O)C[C@@H](C)CN(C)[C@H](C)[C@@H](O)[C@]1(C)O | 0.876 |
| CC(CCc1ccccc1)NC(C)C(O)c1ccc(O)cc1 (stereo not given) | 0.974 |
| CC1(C)OC(=O)NC1=O | 0.969 |
| CC(C(=O)O)c1cccc(Oc2ccccc2)c1 (stereo not given) | 0.957 |
| OCC(O)C(O)C(O)CO (stereo not given) | 1.06 |
| COc1cc(O)c(C(=O)/C=C/c2ccccc2)c(OC)c1 | 0.667 |

###

test: chemical genetic growth profiling, strain panel (AID 1159580)
conditionSet: S. cerevisiae deletion strains, growth OD, locus YPL241C, strain CIN2, active compounds read low
Among all 5,500 compounds or so, about 2,000 (36%) were called active. Another 18% or so got no clear call; they are omitted. The other results are listed elsewhere or left out.
experimentalReadout: normalized growth

| compound | assayResult |
| --- | --- |
| CC(=O)[C@H]1CC[C@H]2[C@@H]3CCC4=CC(=O)CC[C@]4(C)[C@H]3CC[C@]12C | 0.995 (inactive) |
| COc1cc2c(cc1OC)CC(=O)OC2 | 1 (inactive) |
| CC(Oc1ccccc1)C(=O)N[C@@H]1C(=O)N2[C@@H]1SC(C)(C)[C@@H]2C(=O)O (stereo partly specified) | 1.01 (inactive) |
| COc1ccc2c3c1O[C@H]1C[C@@H](O)C=C[C@@]31CCN(C)C2 | 1.01 (inactive) |
| C[C@H]1OC(n2cc(F)c(=O)[nH]c2=O)C(O)[C@@H]1O (stereo partly specified) | 0.996 (inactive) |
| CCS(=O)CCSP(=O)(OC)OC (stereo unspecified) | 1.01 (inactive) |
| NCCSSCCN | 1.01 (inactive) |
| CC(N)CCCC(C)(C)O (stereo unspecified) | 1 (inactive) |
| C=C1C2CC[C@H]3[C@]4(C)C[C@H](OC5OC(CO)C(OS(=O)(=O)O)C(OS(=O)(=O)O)C5OC(=O)CC(C)C)C[C@@H](C(=O)O)[C@H]4CC[C@]3(C2)[C@H]1O (stereo partly specified) | 1.02 (inactive) |
| COc1cc(/C=C2\NC(=O)NC2=O)ccc1O | 0.975 (inactive) |
| CC(=O)OC(C)(C)[C@@H]1Cc2cc3ccc(=O)oc3cc2O1 | 0.996 (inactive) |
| O=C1O/C(=C/Br)CCC1c1cccc2ccccc12 (stereo unspecified) | 0.998 (inactive) |
| COc1ccc(OC)c(S(=O)(=O)Oc2ccc(C#N)cc2)c1 | 0.987 (inactive) |
| CCOC(=O)C(=CNNC(=O)c1ccccc1-n1cccc1)C(=O)OCC | 1.04 (inactive) |
| CCOC(=O)c1cnc2c(cnn2CC)c1NN=C(C)C | 0.964 (inactive) |
| CC(=O)OCC(=O)[C@H]1CCC2C3CCC4=CC(=O)CC[C@]4(C)C3CC[C@@]21C (stereo partly specified) | 0.963 (inactive) |
| C[C@H]1O[C@@H](n2cc(F)c(=O)[nH]c2=O)[C@H](O)[C@@H]1O | 1.01 (inactive) |
| NCC1CCC(C(=O)O)CC1 (stereo unspecified) | 0.996 (inactive) |
| Cc1c(O)c(C(=O)CC(C)C)c2oc3c(C(=O)CC(C)C)c(O)c(C)c(O)c3c2c1O | 1 (inactive) |
| CC1(C(=O)O)C2CCC(O2)C1(C)C(=O)O (stereo unspecified) | 0.97 (inactive) |
| CC(=O)c1c(O)c(C)c(O)c2c1oc1c(C(C)=O)c(O)c(C)c(O)c12 | 0.962 (inactive) |

###

Here, each record is paired with measured normalized growth data.
test: chemical genetic growth profiling, strain panel (AID 1159580)
conditionSet: S. cerevisiae deletion strains, growth OD, locus YDR502C, strain sam2, active compounds read low
In all, about 5,500 compounds went through this assay and about 2,000 (36%) were called active. Inconclusive results (about 18%) are left out. This is one part of the list.

| compound | normalized growth |
| --- | --- |
| C=C(C)[C@@H]1[C@H]2OC(=O)[C@@H]1[C@]1(O)C[C@H]3O[C@]34C(=O)O[C@H]2[C@]14C | 0.994 |
| CC(C)(OC(=O)c1ccccc1)[C@@H]1Cc2cc3ccc(=O)oc3cc2O1 | 0.956 |
| C=C(C)C1CNC(C(=O)O)C1CC(=O)O (centres undefined) | 1.03 |
| CC(=O)OCC(=O)[C@H]1CCC2C3CCC4=CC(=O)CC[C@]4(C)C3CC[C@@]21C (some centres undefined) | 0.899 |

###

test: chemical genetic growth profiling, strain panel (AID 1159580)
conditionSet: S. cerevisiae deletion strains, growth OD, locus YKL085W, strain MDH1
In all, about 5,500 compounds went through this assay and about 2,000 (36%) were called active. Roughly 18% stayed inconclusive and do not appear here. Rule as the data show it: active = normalized growth mostly below about 0.91 (no sharp cut-off); inconclusive = no clear call, values can overlap the other calls; inactive = mostly above about 0.92. The other results are listed elsewhere or left out.
Labels: YES for active, NO for inactive

| compound | classAssignment |
| --- | --- |
| CCOC(=O)c1c(C)cc(O)c(C=O)c1O | YES |
| O=C(O)c1cc2ccccc2[nH]1 | NO |
| CCS(=O)CCSP(=O)(OC)OC (stereo unspecified) | NO |
| NCC1CCC(C(=O)O)CC1 (stereo unspecified) | NO |
| CC(=O)C1CCC2C3CC(=O)C4=CC(=O)CCC4(C)C3CCC12C (stereo unspecified) | NO |
| CCN(CCO)CCCC(C)Nc1ccnc2cc(Cl)ccc12 (stereo unspecified) | NO |
| C=C1C2CC[C@H]3[C@]4(C)C[C@H](OC5OC(CO)C(OS(=O)(=O)O)C(OS(=O)(=O)O)C5OC(=O)CC(C)C)C[C@@H](C(=O)O)[C@H]4CC[C@]3(C2)[C@H]1O (stereo partly specified) | NO |
| NC(=O)c1ccc[n+]([C@@H]2O[C@H](COP(=O)([O-])OP(=O)(O)OC[C@H]3O[C@@H](n4cnc5c(N)ncnc54)[C@H](O)[C@@H]3O)[C@@H](O)[C@H]2O)c1 | NO |
| CC1=C(/C=C/C(C)=C/C=C/C(C)=C/C=C/C=C(C)/C=C/C=C(C)/C=C/C23OC2(C)CC(O)CC3(C)C)C(C)(C)CC(O)C1 (stereo unspecified) | NO |
| C=C(C)C1CNC(C(=O)O)C1CC(=O)O (stereo unspecified) | NO |
| CCC(=O)O[C@H]1[C@H](O[C@@H]2[C@@H](C)[C@H](O[C@H]3C[C@@](C)(OC)[C@@H](O)[C@H](C)O3)[C@@H](C)C(=O)O[C@H](CC)[C@@](C)(O)[C@H](O)[C@@H](C)C(=O)[C@H](C)C[C@@]2(C)O)O[C@H](C)C[C@@H]1N(C)C | NO |

All values here come from PubChem BioAssay AID1159580.
